biological target: rNTS1 receptor (Rattus norvegicus); construct: expressed in transfected cells; assay: 125I-NT competitive binding assay, whole CHO-kl cells over-expressing rNTS1; conditions: competition with 125I-NT; bound given in uM; read-out: NTS1 Ki
observation_type: Ki

{"columns": ["smiles_str", "test_result"],
 "data": [
  ["COc1ccccc1-c1cc(C(=O)NC2(C(=O)O)CCCCC2)nn1-c1ccc(F)cc1", "> 25 µM"]
]}

* * *

target: rNTS1 receptor (Rattus norvegicus); construct: expressed in transfected cells; test: 125I-NT competitive binding assay, whole CHO-kl cells over-expressing rNTS1; settings: competition with 125I-NT; ± SEM; read-out: NTS1 Ki
// Ki lookup, one value per entry
observation_type: Ki (µM)

{"columns": ["molecule", "observation_type", "test_result"],
 "data": [
  ["COc1cccc(OC)c1-c1cc(C(=O)NC2(C(=O)O)CCCCC2)nn1-c1ccc(F)cc1 [29b]", "Ki", 3.21],
  ["COc1ccccc1-c1cc(C(=O)NC2(C(=O)O)C3CC4CC(C3)CC2C4)nn1-c1ccc(F)cc1 (centres unmarked) [compound 31]", "Ki", 4.33]
]}

* * *

molecular target: rNTS1 receptor (Rattus norvegicus, UniProt P20789); construct: expressed in transfected cells; experiment: Calcium mobilization assay for NTS1 receptor (FLIPR assay, FlexStation II); type: cell-based; conditions: antagonism of NT induced calcium release; ± SEM; read-out: NTS1 Ke
Sequence (P20789 whole entry): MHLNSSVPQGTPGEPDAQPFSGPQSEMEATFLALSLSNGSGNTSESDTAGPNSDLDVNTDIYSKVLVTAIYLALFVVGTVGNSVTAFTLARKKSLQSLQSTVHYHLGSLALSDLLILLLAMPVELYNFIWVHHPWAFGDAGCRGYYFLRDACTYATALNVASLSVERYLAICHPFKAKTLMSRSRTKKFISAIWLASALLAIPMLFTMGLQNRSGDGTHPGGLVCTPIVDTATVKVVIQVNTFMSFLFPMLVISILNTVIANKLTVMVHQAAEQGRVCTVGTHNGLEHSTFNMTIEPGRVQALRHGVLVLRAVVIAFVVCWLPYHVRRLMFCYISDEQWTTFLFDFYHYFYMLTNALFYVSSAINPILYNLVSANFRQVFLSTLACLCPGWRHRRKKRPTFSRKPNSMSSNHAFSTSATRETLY
Please note: Kb exactly at 200 nM is not met. Only values below 200 nM get met.

{"columns": ["compound", "class_name"],
 "data": [
  ["COc1ccccc1-c1cc(C(=O)NC2(C(=O)O)CCCCC2)nn1-c1cccc2ccccc12 [27b]", "not met"],
  ["COc1ccccc1-c1cc(C(=O)NC2(C(=O)O)CCCCC2)nn1-c1ccnc2cc(Cl)ccc12 [23b]", "not met"],
  ["COc1cccc(OC)c1-c1cc(C(=O)NC2(C(=O)O)CCCCC2)nn1-c1cccc2ccccc12 [26b]", "not met"],
  ["COc1ccccc1-c1cc(C(=O)N[C@H](C(=O)O)C2CCCCC2)nn1-c1cccc2ccccc12 [25b]", "not met"],
  ["COc1ccc(OC)c(-c2cc(C(=O)N[C@H](C(=O)O)C3CCCCC3)nn2-c2ccnc3cc(Cl)ccc23)c1 [15b]", "not met"],
  ["COc1cccc(OC)c1-c1cc(C(=O)NC2(C(=O)O)CCCCC2)nn1-c1ccnc2cc(Cl)ccc12 [21b]", "met"],
  ["COc1cccc(OC)c1-c1cc(C(=O)NC2(C(=O)O)C3CC4CC(C3)CC2C4)nn1-c1ccc(C(=O)N(C)CCCN(C)C)cc1C(C)C (stereo not drawn) [5b, reference compound]", "met"],
  ["COc1cccc(OC)c1-c1cc(C(=O)N[C@H](C(=O)O)C2CCCCC2)nn1-c1ccnc2cc(Cl)ccc12 [14b]", "met"],
  ["COc1ccccc1-c1cc(C(=O)N[C@H](C(=O)O)C2CCCCC2)nn1-c1ccnc2cc(Cl)ccc12 [17b]", "not met"],
  ["COc1cccc(OC)c1-c1cc(C(=O)N[C@H](C(=O)O)C2CCCCC2)nn1-c1cccc2ccccc12 [24b]", "met"],
  ["COc1ccccc1-c1cc(C(=O)NC2(C(=O)O)C3CC4CC(C3)CC2C4)nn1-c1ccc(F)cc1 (stereo not drawn)", "not met"],
  ["COc1cccc(OC)c1-c1cc(C(=O)NC2(C(=O)O)C3CC4CC(C3)CC2C4)nn1-c1ccc(F)cc1 (stereo not drawn)", "met"],
  ["COc1cccc(OC)c1-c1cc(C(=O)NC2(C(=O)O)CCCC2)nn1-c1ccnc2cc(Cl)ccc12 [22b]", "not met"],
  ["COc1cccc(OC)c1-c1cc(C(=O)N[C@H](C(=O)O)C2CCCCC2)nn1-c1ccc(F)cc1 [28b]", "not met"],
  ["COc1cccc(OC)c1-c1cc(C(=O)NC2(C(=O)O)CCCCCC2)nn1-c1ccnc2cc(Cl)ccc12 [20b]", "met"]
]}

Provenance of the data: patent US20170174633A1
